assay: Antioxidant activity against peroxynitrite-induced tyrosine nitration after 15 mins by HPLC; assay type: functional
Quick reference: IC50 of the listed items.

smilesRecord: Cc1ccc(-n2cc(C(=O)c3ccccc3)c(C(=O)c3cn(-c4ccccc4)nc3C(=O)/C=C/N(C)C)n2)cc1
IC50 (µM): 42.2

smilesRecord: CN(C)/C=C/C(=O)c1nn(-c2ccccc2)cc1C(=O)c1nn(-c2ccc(Cl)cc2)cc1C(=O)c1ccccc1
IC50 (µM): 44.6

smilesRecord: CC(=O)c1nn(-c2ccccc2)cc1C(=O)c1nn(-c2ccccc2)cc1C(=O)c1nn(-c2ccccc2)cc1C(=O)c1ccccc1
IC50 (µM): 42.1

smilesRecord: CC(=O)c1nn(-c2ccccc2)cc1C(=O)c1nn(-c2ccc([N+](=O)[O-])cc2)cc1C(=O)c1ccccc1
IC50 (µM): 36.6

smilesRecord: CN(C)/C=C/C(=O)c1nn(-c2ccccc2)cc1C(=O)c1nn(-c2ccccc2)cc1C(=O)c1ccccc1
IC50 (µM): 44

smilesRecord: CC(=O)c1nn(-c2ccccc2)cc1C(=O)c1nn(-c2ccccc2)cc1C(=O)c1nn(-c2ccc(Cl)cc2)cc1C(=O)c1ccccc1
IC50 (µM): 35.1

smilesRecord: CC(=O)c1nn(-c2ccccc2)cc1C(=O)c1nn(-c2ccc(C)cc2)cc1C(=O)c1ccccc1
IC50 (µM): 44.1

smilesRecord: CC(=O)c1nn(-c2ccccc2)cc1C(=O)c1nn(-c2ccc(Cl)cc2)cc1C(=O)c1ccccc1
IC50 (µM): 32.2

smilesRecord: CC(=O)c1nn(-c2ccccc2)cc1C(=O)c1nn(-c2ccccc2)cc1C(=O)c1nn(-c2ccc(C)cc2)cc1C(=O)c1ccccc1
IC50 (µM): 34

smilesRecord: CC(=O)c1nn(-c2ccc(Cl)cc2)cc1C(=O)c1ccccc1
IC50 (µM): 38.1

---

system: Radical scavenging activity; assay: Antioxidant activity against DPPH radical scavenging activity after 30 mins by ELISA; format: functional; parameters: concentration or dose not given beside the values

smilesRecord: O=C1O[C@H]([C@@H](O)CO)C(O)=C1O
unitAbbreviation: %
Activity: 79
//
smilesRecord: CN(C)/C=C/C(=O)c1nn(-c2ccccc2)cc1C(=O)c1ccccc1
unitAbbreviation: %
Activity: 94.5
//
smilesRecord: CC(=O)c1nn(-c2ccc(Cl)cc2)cc1C(=O)c1ccccc1
unitAbbreviation: %
Activity: 95.5
//
smilesRecord: CN(C)/C=C/C(=O)c1nn(-c2ccccc2)cc1C(=O)c1nn(-c2ccccc2)cc1C(=O)c1ccccc1
unitAbbreviation: %
Activity: 94.7
//
smilesRecord: Cc1ccc(-n2cc(C(=O)c3ccccc3)c(C(=O)c3cn(-c4ccccc4)nc3C(=O)/C=C/N(C)C)n2)cc1
unitAbbreviation: %
Activity: 94.9
//
smilesRecord: CC(=O)c1nn(-c2ccccc2)cc1C(=O)c1nn(-c2ccccc2)cc1C(=O)c1nn(-c2ccc(Cl)cc2)cc1C(=O)c1ccccc1
unitAbbreviation: %
Activity: 96.1
//
smilesRecord: CC(=O)c1nn(-c2ccc(C)cc2)cc1C(=O)c1ccccc1
unitAbbreviation: %
Activity: 95.8

---

test system: Radical scavenging activity; assay: Antioxidant activity against DPPH radical scavenging activity after 30 mins by ELISA; type: functional; design: concentration or dose not given beside the values

smilesRecord: CC(=O)c1nn(-c2ccccc2)cc1C(=O)c1nn(-c2ccccc2)cc1C(=O)c1nn(-c2ccc(C)cc2)cc1C(=O)c1ccccc1
Activity [%]: 96.9

smilesRecord: CC(=O)c1nn(-c2ccccc2)cc1C(=O)c1ccccc1
Activity [%]: 95.2

smilesRecord: CC(=O)c1nn(-c2ccc([N+](=O)[O-])cc2)cc1C(=O)c1ccccc1
Activity [%]: 98.2

smilesRecord: CC(=O)c1nn(-c2ccccc2)cc1C(=O)c1nn(-c2ccccc2)cc1C(=O)c1nn(-c2ccccc2)cc1C(=O)c1ccccc1
Activity [%]: 95

smilesRecord: Cc1ccc(-n2cc(C(=O)c3ccccc3)c(C(=O)/C=C/N(C)C)n2)cc1
Activity [%]: 96.6

---

// Ratio lookup, one value per entry
molecular target: DNA topoisomerase 2-alpha (Mus musculus) (UniProt Q01320); test: Inhibition of mouse DNA topoisomerase 2 assessed as relaxation of supercoiled pBR322 plasmid DNA after 1 hr by electrophoresis relative to etoposide
Sequence (Q01320 whole entry): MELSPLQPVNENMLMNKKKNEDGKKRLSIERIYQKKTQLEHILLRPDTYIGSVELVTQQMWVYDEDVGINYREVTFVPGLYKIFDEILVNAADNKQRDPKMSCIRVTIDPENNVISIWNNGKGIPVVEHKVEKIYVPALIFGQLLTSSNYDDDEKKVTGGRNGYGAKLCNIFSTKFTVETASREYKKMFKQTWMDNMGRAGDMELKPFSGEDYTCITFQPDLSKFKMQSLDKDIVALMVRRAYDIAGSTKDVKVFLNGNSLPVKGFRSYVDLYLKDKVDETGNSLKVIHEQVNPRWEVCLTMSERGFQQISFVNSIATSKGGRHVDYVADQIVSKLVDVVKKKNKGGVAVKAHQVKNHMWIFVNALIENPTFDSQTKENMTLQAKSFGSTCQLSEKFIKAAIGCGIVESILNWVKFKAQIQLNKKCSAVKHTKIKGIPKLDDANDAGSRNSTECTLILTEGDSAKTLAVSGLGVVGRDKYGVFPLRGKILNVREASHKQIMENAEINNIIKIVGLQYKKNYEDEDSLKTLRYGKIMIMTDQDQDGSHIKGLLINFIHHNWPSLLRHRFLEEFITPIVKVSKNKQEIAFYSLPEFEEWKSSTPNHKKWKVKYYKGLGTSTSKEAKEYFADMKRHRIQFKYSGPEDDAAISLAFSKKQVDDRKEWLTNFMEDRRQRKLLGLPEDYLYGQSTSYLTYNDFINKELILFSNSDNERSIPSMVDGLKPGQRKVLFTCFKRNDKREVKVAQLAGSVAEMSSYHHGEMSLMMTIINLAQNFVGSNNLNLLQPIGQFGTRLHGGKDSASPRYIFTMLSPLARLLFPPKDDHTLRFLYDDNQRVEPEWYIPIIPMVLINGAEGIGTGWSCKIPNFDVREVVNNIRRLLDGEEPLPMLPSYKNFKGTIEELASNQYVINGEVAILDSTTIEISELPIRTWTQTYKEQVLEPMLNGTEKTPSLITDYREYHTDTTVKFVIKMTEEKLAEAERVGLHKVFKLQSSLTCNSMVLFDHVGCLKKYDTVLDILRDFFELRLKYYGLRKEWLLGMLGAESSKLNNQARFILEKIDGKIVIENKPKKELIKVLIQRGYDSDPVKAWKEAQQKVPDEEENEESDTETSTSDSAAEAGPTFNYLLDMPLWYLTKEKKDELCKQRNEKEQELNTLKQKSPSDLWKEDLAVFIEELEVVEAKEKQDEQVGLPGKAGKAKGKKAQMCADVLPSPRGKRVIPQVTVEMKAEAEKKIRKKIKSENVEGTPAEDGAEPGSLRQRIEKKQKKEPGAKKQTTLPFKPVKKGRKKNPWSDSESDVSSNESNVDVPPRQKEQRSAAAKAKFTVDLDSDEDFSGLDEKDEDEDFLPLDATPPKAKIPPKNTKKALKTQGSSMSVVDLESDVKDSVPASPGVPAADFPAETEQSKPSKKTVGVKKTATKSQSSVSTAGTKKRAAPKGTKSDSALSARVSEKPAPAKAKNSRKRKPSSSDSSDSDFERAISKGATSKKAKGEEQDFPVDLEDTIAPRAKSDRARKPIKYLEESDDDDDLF

smilesRecord: CC(=O)c1nn(-c2ccccc2)cc1C(=O)c1ccccc1
experimentalTarget: DNA topoisomerase 2-alpha (Mus musculus) (UniProt Q01320)
Ratio: 168
//
smilesRecord: CN(C)/C=C/C(=O)c1nn(-c2ccccc2)cc1C(=O)c1ccccc1
experimentalTarget: DNA topoisomerase 2-alpha (Mus musculus) (UniProt Q01320)
Ratio: 136
//
smilesRecord: CC(=O)c1nn(-c2ccccc2)cc1C(=O)c1nn(-c2ccccc2)cc1C(=O)c1nn(-c2ccccc2)cc1C(=O)c1ccccc1
experimentalTarget: DNA topoisomerase 2-alpha (Mus musculus) (UniProt Q01320)
Ratio: 151
//
smilesRecord: CC(=O)c1nn(-c2ccccc2)cc1C(=O)c1nn(-c2ccccc2)cc1C(=O)c1nn(-c2ccc(Cl)cc2)cc1C(=O)c1ccccc1
experimentalTarget: DNA topoisomerase 2-alpha (Mus musculus) (UniProt Q01320)
Ratio: 196
//
smilesRecord: CC(=O)c1nn(-c2ccc(Cl)cc2)cc1C(=O)c1ccccc1
experimentalTarget: DNA topoisomerase 2-alpha (Mus musculus) (UniProt Q01320)
Ratio: 178

---

assay: Antioxidant activity against peroxynitrite-induced tyrosine nitration after 15 mins by HPLC; format: functional
The entries below come with measured IC50 values attached.

compound: CN(C)/C=C/C(=O)c1nn(-c2ccccc2)cc1C(=O)c1ccccc1
IC50 / µM: 44
//
compound: Cc1c(C)c2c(c(C)c1O)CCC(C)(C(=O)O)O2 (stereo unspecified)
IC50 / µM: 58.4
//
compound: Cc1ccc(-n2cc(C(=O)c3ccccc3)c(C(=O)/C=C/N(C)C)n2)cc1
IC50 / µM: 34.2
//
compound: CC(=O)c1nn(-c2ccccc2)cc1C(=O)c1ccccc1
IC50 / µM: 39.5
//
compound: CC(=O)c1nn(-c2ccc([N+](=O)[O-])cc2)cc1C(=O)c1ccccc1
IC50 / µM: 31.5
//
compound: CC(=O)c1nn(-c2ccc(C)cc2)cc1C(=O)c1ccccc1
IC50 / µM: 37.8

---

target: DNA topoisomerase 2-alpha (Mus musculus) (UniProt Q01320); test: Inhibition of mouse DNA topoisomerase 2 assessed as relaxation of supercoiled pBR322 plasmid DNA after 1 hr by electrophoresis relative to etoposide
Consider the following compounds and their measured Ratio readings.
experimentalReadout: Ratio

smilesRecord: CC(=O)c1nn(-c2ccccc2)cc1C(=O)c1nn(-c2ccc(Cl)cc2)cc1C(=O)c1ccccc1
experimentalReadout: Ratio
endpointValue: 261
--
smilesRecord: Cc1ccc(-n2cc(C(=O)c3ccccc3)c(C(=O)/C=C/N(C)C)n2)cc1
experimentalReadout: Ratio
endpointValue: 260
--
smilesRecord: CC(=O)c1nn(-c2ccccc2)cc1C(=O)c1nn(-c2ccc(C)cc2)cc1C(=O)c1ccccc1
experimentalReadout: Ratio
endpointValue: 38.4
--
smilesRecord: CC(=O)c1nn(-c2ccccc2)cc1C(=O)c1nn(-c2ccc([N+](=O)[O-])cc2)cc1C(=O)c1ccccc1
experimentalReadout: Ratio
endpointValue: 195
--
smilesRecord: CC(=O)c1nn(-c2ccccc2)cc1C(=O)c1nn(-c2ccccc2)cc1C(=O)c1nn(-c2ccc(C)cc2)cc1C(=O)c1ccccc1
experimentalReadout: Ratio
endpointValue: 261
--
smilesRecord: CC(=O)c1nn(-c2ccc([N+](=O)[O-])cc2)cc1C(=O)c1ccccc1
experimentalReadout: Ratio
endpointValue: 261

---

test system: Radical scavenging activity; assay: Antioxidant activity against DPPH radical scavenging activity after 30 mins by ELISA; assay type: functional; set-up: concentration or dose not given beside the values
Listed here: items and their measured Activity.
experimentalReadout: Activity (%)

smilesRecord: CC(=O)c1nn(-c2ccccc2)cc1C(=O)c1nn(-c2ccc(C)cc2)cc1C(=O)c1ccccc1
endpointValue: 94
//
smilesRecord: CN(C)/C=C/C(=O)c1nn(-c2ccccc2)cc1C(=O)c1nn(-c2ccc(Cl)cc2)cc1C(=O)c1ccccc1
endpointValue: 93
//
smilesRecord: CC(=O)c1nn(-c2ccccc2)cc1C(=O)c1nn(-c2ccc([N+](=O)[O-])cc2)cc1C(=O)c1ccccc1
endpointValue: 96
//
smilesRecord: CC(=O)c1nn(-c2ccccc2)cc1C(=O)c1nn(-c2ccc(Cl)cc2)cc1C(=O)c1ccccc1
endpointValue: 97.7

---

system: MC-38; experiment: Growth inhibition of mouse Colon 38 cells after 72 hrs by sulforhodamine B assay relative to etoposide; format: functional
Field 'label' (enum: T / F). Set to T when RatioGI50 is strictly under 200; else F.

smilesRecord: CC(=O)c1nn(-c2ccc([N+](=O)[O-])cc2)cc1C(=O)c1ccccc1
experimentalTarget: MC-38
classification: F
--
smilesRecord: CC(=O)c1nn(-c2ccccc2)cc1C(=O)c1nn(-c2ccc(C)cc2)cc1C(=O)c1ccccc1
experimentalTarget: MC-38
classification: T
--
smilesRecord: CC(=O)c1nn(-c2ccccc2)cc1C(=O)c1nn(-c2ccc(Cl)cc2)cc1C(=O)c1ccccc1
experimentalTarget: MC-38
classification: F
--
smilesRecord: CC(=O)c1nn(-c2ccc(Cl)cc2)cc1C(=O)c1ccccc1
experimentalTarget: MC-38
classification: T
--
smilesRecord: CN(C)/C=C/C(=O)c1nn(-c2ccccc2)cc1C(=O)c1nn(-c2ccc(Cl)cc2)cc1C(=O)c1ccccc1
experimentalTarget: MC-38
classification: T

Values were extracted from ChEMBL document CHEMBL1154840.
